Tested on: Staphylococcus aureus
Test: Antibacterial activity against Staphylococcus aureus ATCC 25923 incubated for 16 to 24 hrs by broth microdilution based spectrophotometric analysis
Format: functional, organism-based
measure: IC50 (µM)
State the answer as a number, implicitly in µM.

Query: # get_value(readout='IC50', item= "COc1cc(C)c(C(=O)O[C@H]2[C@@H](O)[C@H](O[C@H]3CC[C@H](C)[C@@H]4[C@@H]3C=C(C)[C@H]3/C(C)=C/CC/C(C)=C/[C@@H]5C=C(C(=O)O)[C@H](C)C[C@]56OC(=O)C(=C6O)C(=O)[C@@]43C)O[C@H](C)[C@H]2O)c(O)c1" )
Reply: 8.4

Query: # get_value(readout='IC50', item= "CCCCC(=O)O[C@H]1CC[C@H](C)[C@@H]2[C@@H]1C=C(C)[C@H]1/C(C)=C/CC/C(C)=C/[C@]3(C)C=C(C)[C@H](C)C[C@]34OC(=O)C(=C4O)C(=O)[C@@]21C" )
Reply: 0.2

----------
Provide the reported IC50 at 48 h of each item.
Assay: Cytotoxicity against human NCI-H460 cells and measured after 48 hrs by MTT assay
Type: toxicity, cell-based

Query: # get_value(readout='IC50 at 48 h', item= "COc1cc(C)c(C(=O)O[C@H]2[C@@H](O)[C@H](O[C@H]3CC[C@H](C)[C@@H]4[C@@H]3C=C(C)[C@H]3/C(C)=C/CC/C(C)=C/[C@@H]5C=C(C(=O)O)[C@H](C)C[C@]56OC(=O)C(=C6O)C(=O)[C@@]43C)O[C@H](C)[C@H]2O)c(O)c1" )
Reply: > 30 µM

Query: # get_value(readout='IC50 at 48 h', item= "COc1cc(C)c(C(=O)O[C@H]2[C@@H](O)[C@@H](O)[C@H](O[C@H]3CC[C@H](C)[C@@H]4[C@@H]3C=C(C)[C@H]3/C(C)=C/CC/C(C)=C/[C@]5(C)C=C(C(=O)O)[C@H](C)C[C@]56OC(=O)C(=C6O)C(=O)[C@@]43C)O[C@@H]2C)c(OC)c1" )
Reply: > 30 µM

----------
Test system: Staphylococcus aureus
Assay: Antibacterial activity against Staphylococcus aureus ATCC 25923 incubated for 16 to 24 hrs by broth microdilution based spectrophotometric analysis
Type: functional, organism-based
measure: pIC50
// pIC50 is dimensionless: -log10 of concentration (M)

Query: # get_value(readout='pIC50', item= "CC(=O)O[C@H]1CC[C@H](C)[C@@H]2[C@@H]1C=C(C)[C@H]1/C(C)=C/CC/C(C)=C/[C@@H]3C=C(C)[C@H](C)C[C@]34OC(=O)C(=C4O)C(=O)[C@@]21C" )
Reply: 6.10

Query: # get_value(readout='pIC50', item= "COc1cc(C)c(C(=O)O[C@H]2[C@H](O[C@H]3CC[C@H](C)[C@@H]4[C@@H]3C=C(C)[C@H]3/C(C)=C/CC/C(C)=C/[C@]5(C)C=C(C(=O)O)[C@H](C)C[C@]56OC(=O)C(=C6O)C(=O)[C@@]43C)O[C@H](C)[C@@H](O)[C@H]2O)c(O)c1" )
Reply: 5.00

Query: # get_value(readout='pIC50', item= "COc1cc(C)c(C(=O)N[C@@H]2[C@@H](C)O[C@@H](O[C@H]3CC[C@H](C)[C@@H]4[C@@H]3C=C(C)[C@H]3/C(C)=C/CC/C(C)=C/[C@]5(C)C=C(C(=O)O)[C@H](C)C[C@]56OC(=O)C(=C6O)C(=O)[C@@]43C)[C@H](O)[C@]2(C)O)c(O)c1" )
Reply: 4.92

Query: # get_value(readout='pIC50', item= "COc1cc(C)c(C(=O)O[C@H]2[C@@H](O)[C@@H](O)[C@H](O[C@H]3CC[C@H](C)[C@@H]4[C@@H]3C=C(C)[C@H]3/C(C)=C/CC/C(C)=C/[C@@H]5C=C(C(=O)O)[C@H](C)C[C@]56OC(=O)C(=C6O)C(=O)[C@@]43C)O[C@@H]2C)c(O)c1" )
Reply: 4.82

Query: # get_value(readout='pIC50', item= "COc1cc(C)c(C(=O)O[C@H]2[C@H](O[C@H]3CC[C@H](C)[C@@H]4[C@@H]3C=C(C)[C@H]3/C(C)=C/CC/C(C)=C/[C@@H]5C=C(C(=O)O)[C@H](C)C[C@]56OC(=O)C(=C6O)C(=O)[C@@]43C)O[C@H](C)[C@@H](O)[C@H]2O)c(O)c1" )
Reply: 4.74

Query: # get_value(readout='pIC50', item= "COc1cc(C)c(C(=O)O[C@H]2[C@@H](O)[C@@H](O)[C@H](O[C@H]3CC[C@H](C)[C@@H]4[C@@H]3C=C(C)[C@H]3/C(C)=C/CC/C(C)=C/[C@]5(C)C=C(C(=O)O)[C@H](C)C[C@]56OC(=O)C(=C6O)C(=O)[C@@]43C)O[C@@H]2C)c(OC)c1" )
Reply: 5.31

Query: # get_value(readout='pIC50', item= "CC1=C[C@@]2(C)/C=C(\C)CC/C=C(\C)[C@@H]3C(C)=C[C@H]4[C@@H]([C@@H](C)CC[C@@H]4O)[C@]3(C)C(=O)C3=C(O)[C@@]2(C[C@H]1C)OC3=O" )
Reply: 4.79

Query: # get_value(readout='pIC50', item= "COc1cc(C)c(C(=O)N[C@@H]2[C@@H](C)O[C@@H](O[C@H]3CC[C@H](C)[C@@H]4[C@@H]3C=C(C)[C@H]3/C(C)=C/CC/C(C)=C/[C@@H]5C=C(C(=O)O)[C@H](C)C[C@]56OC(=O)C(=C6O)C(=O)[C@@]43C)[C@H](O)[C@]2(C)O)c(O)c1" )
Reply: 5.19

Query: # get_value(readout='pIC50', item= "COc1cc(C)c(C(=O)O[C@H]2[C@@H](O)[C@H](O[C@H]3CC[C@H](C)[C@@H]4[C@@H]3C=C(C)[C@H]3/C(C)=C/CC/C(C)=C/[C@]5(C)C=C(C(=O)O)[C@H](C)C[C@]56OC(=O)C(=C6O)C(=O)[C@@]43C)O[C@H](C)[C@H]2O)c(O)c1" )
Reply: 4.63

Query: # get_value(readout='pIC50', item= "CC(=O)O[C@H]1CC[C@H](C)[C@@H]2[C@@H]1C=C(C)[C@H]1/C(C)=C/CC/C(C)=C/[C@]3(C)C=C(C)[C@H](C)C[C@]34OC(=O)C(=C4O)C(=O)[C@@]21C" )
Reply: 5.92
